These measurements were taken from paper PMC8603004.

assay: Feeding study 1 in beef cattle, NOPA in plasma; type: in vivo; conditions: bovine, oral, 284 mg/kg
READOUT TYPE: concentration at 180 min

query: Would you mind telling me what concentration at 180 min value was observed for "O=C(O)CCO[N+](=O)[O-]" ?
result: 22.3 to 207 ng/mL

* * *

assay: Incubation of 14C‐3‐NOP in liver fractions; assay type: in vitro ADME, humans; conditions: human, liver S9 and liver cytosol
READOUT TYPE: half-life

query: What half-life value was documented for this compound, O=[N+]([O-])OCCCO [3‐NOP, propan‐1,3‐diol‐mononitrate] ?
result: ~42 min

* * *

assay: Incubation of 14C‐3‐NOP in liver fractions; format: in vitro ADME; conditions: Beagle, dog, liver S9
READOUT TYPE: half-life (h)
Answer in h, number only, no unit symbol.

query: What value of half-life has been recorded for this entry: O=[N+]([O-])OCCCO [3‐NOP, propan‐1,3‐diol‐mononitrate]
result: 1.1

* * *

test: Tolerance study in dairy cows; assay type: in vivo; settings: female, Holstein Friesian, cattle, liver, kidney, muscle, fat, oral
READOUT TYPE: concentration at 57 day

query: Requested read-out: concentration at 57 day. Entry: O=C(O)CCO[N+](=O)[O-] [NOPA, 3‐nitrooxypropionic acid]
result: < 5 ng/g
